Origin of the recorded values: ChEMBL document CHEMBL1152534

PROTOCOL_DESCRIPTION: Selectivity index, ratio of CC50 for african green monkey (Cercopithecus aethiops) Vero cells to IC50 for chloroquine-sensitive Plasmodium falciparum 3D7
Type: functional
Ratio CC50/IC50 listing for selected compounds.
Give only the figure.

Look over these answered cases.
INSERT INTO assay_data (smiles_code, measurement) VALUES
  ('CN(C)CCNC(=O)C(=O)NCCCNc1ccnc2cc(Cl)ccc12', 2527.65),
  ('CCN(CC)CCNC(=O)C(=O)N1CCN(c2ccnc3cc(Cl)ccc23)CC1', 1183.41);

Lab note: next compound to report on.
So, `Clc1ccc2c(NCCCNc3nc(NCCN4CCOCC4)nc(N4CCOCC4)n3)ccnc2c1` ? Its Ratio CC50/IC50 was 1017.32

###

Test system: Plasmodium falciparum
PROTOCOL_DESCRIPTION: Antimalarial activity against chloroquine-sensitive Plasmodium falciparum 3D7 […] after 72 hrs by twofold serial dilution method
Type: functional, organism-based
CONDITIONS: Plasmodium falciparum, 3D7, Vero, 72 h; read-out: IC50
IC50 listing for selected compounds.
Reply with a number, then the unit it belongs to.

So, `CCCCNC(=O)C(=O)NCCNc1ccnc2cc(Cl)ccc12` ? Its IC50 was 0.233 µg/mL

So, `O=C(NCCNc1ccnc2cc(Cl)ccc12)C(=O)NCCN1CCOCC1` ? Its IC50 was 0.0908 µg/mL

So, `O=C(NCCCN1CCOCC1)C(=O)NCCNc1ccnc2cc(Cl)ccc12` ? Its IC50 was 0.0313 µg/mL

So, `O=C(NCCCNc1ccnc2cc(Cl)ccc12)C(=O)NCCCN1CCOCC1` ? Its IC50 was 0.0254 µg/mL

So, `O=C(NCCCN1CCOCC1)C(=O)N1CCN(CCNc2ccnc3cc(Cl)ccc23)CC1` ? Its IC50 was 0.0408 µg/mL

So, `Clc1ccc2c(NCCCNc3nc(NCCCN4CCOCC4)nc(N4CCOCC4)n3)ccnc2c1` ? Its IC50 was 0.0521 µg/mL

###

PROTOCOL_DESCRIPTION: Selectivity index, ratio of CC50 for african green monkey (Cercopithecus aethiops) Vero cells to IC50 for chloroquine-sensitive Plasmodium falciparum 3D7
Format: functional
# label = 1 (yes) if Ratio CC50/IC50 < 200 else 0 (no)

Please review the following examples before continuing.
INSERT INTO assay_data (smiles_code, cat) VALUES
  ('O=C(NCCCNc1ccnc2cc(Cl)ccc12)C(=O)NCCN1CCOCC1', '1 (yes)'),
  ('CN(C)CCNC(=O)C(=O)NCCNc1ccnc2cc(Cl)ccc12', '0 (no)'),
  ('CN(C)CCNc1nc(NCCCNc2ccnc3cc(Cl)ccc23)nc(N2CCOCC2)n1', '0 (no)'),
  ('CCN(CC)CCNC(=O)C(=O)NCCCNc1ccnc2cc(Cl)ccc12', '0 (no)');

Below: the item to evaluate.
## Input Hi there! Is Ratio CC50/IC50 for `CN1CCN(c2nc(NCCCNc3ccnc4cc(Cl)ccc34)nc(N3CCCCC3)n2)CC1` below 200, do you know?
## Output 0 (no)

###

PROTOCOL_DESCRIPTION: Selectivity index, ratio of CC50 for african green monkey (Cercopithecus aethiops) Vero cells to IC50 for chloroquine-sensitive Plasmodium falciparum 3D7
Assay type: functional
# label = 1 if Ratio CC50/IC50 < 1000 else -1

INSERT INTO measurements (smiles_code, cat) VALUES
  ('Clc1ccc2c(NCCNc3nc(NCCCN4CCOCC4)nc(N4CCCCC4)n3)ccnc2c1', 1),
  ('CCN(CC)CCNc1nc(NCCNc2ccnc3cc(Cl)ccc23)nc(N2CCOCC2)n1', -1),
  ('CN(C)CCNc1nc(NCCNc2ccnc3cc(Cl)ccc23)nc(N2CCOCC2)n1', -1);

## Input Hi there! Is Ratio CC50/IC50 for `O=C(NCCCNc1ccnc2cc(Cl)ccc12)C(=O)NCCCN1CCOCC1` below 1000, do you know?
## Output -1
